test system: SW872; assay: relative viability vs DMSO control (72 h) (fraction); higher = more viable cells; conditions: 0.3704 µM

- Smiles String: "Cc1cc(Nc2ncnc3ccc(NC4=NC(C)(C)CO4)cc23)ccc1Oc1ccn2ncnc2c1"
  relative viability: 1.04
- Smiles String: "C[C@@H]1COCCN1c1cc(-c2ccnn2C)c2ccnc(-c3ccn[nH]3)c2n1"
  relative viability: 0.452
- Smiles String: "CN1CCN(c2ccc3nc(-c4c(N)c5c(F)cccc5[nH]c4=O)[nH]c3c2)CC1"
  relative viability: 0.891
- Smiles String: "COc1cc2nccc(Oc3ccc(NC(=O)Nc4cc(C)on4)c(Cl)c3)c2cc1OC"
  relative viability: 1.1
- Smiles String: "CCCS(=O)(=O)Nc1ccc(F)c(C(=O)c2c[nH]c3ncc(-c4ccc(Cl)cc4)cc23)c1F"
  relative viability: 0.706
